Target: T1, ectodomain of human CD98hc (human, UniProt P08195 105-529)
T1 chain: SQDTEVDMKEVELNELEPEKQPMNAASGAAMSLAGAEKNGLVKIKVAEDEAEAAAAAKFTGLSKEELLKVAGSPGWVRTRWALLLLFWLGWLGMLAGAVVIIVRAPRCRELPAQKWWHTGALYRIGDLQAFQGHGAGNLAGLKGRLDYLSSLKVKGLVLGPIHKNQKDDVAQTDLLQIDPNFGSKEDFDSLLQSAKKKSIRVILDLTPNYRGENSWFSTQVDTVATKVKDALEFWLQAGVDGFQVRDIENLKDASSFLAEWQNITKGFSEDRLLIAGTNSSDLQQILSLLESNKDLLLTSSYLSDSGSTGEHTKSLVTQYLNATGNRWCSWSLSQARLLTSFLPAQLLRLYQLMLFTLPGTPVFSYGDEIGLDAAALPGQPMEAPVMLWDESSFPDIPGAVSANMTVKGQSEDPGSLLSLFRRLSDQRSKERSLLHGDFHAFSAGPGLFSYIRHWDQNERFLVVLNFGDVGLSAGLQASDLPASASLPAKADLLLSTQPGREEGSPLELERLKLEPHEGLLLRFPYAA
Assay: ELISA, expression medium of VNAR-hFc on coated protein
Hi! Could you tag entries with Binding [relative units] below 3 relative units as condition met, and those at or above as condition not met? Much appreciated.

Here are 3 binders together with their reported answers.
VNAR clone H7 fused N-terminally to human IgG1 Fc (VNAR-hFc) (Fc fusion, Bivalent VNAR-Fc from Expi293 cells; not shown: human IgG1 Fc (hinge, CH2 and CH3) as encoded by vector pFUSE-hIgG1e3-Fc2) ARVDQTPQTITKEEGESLTINCVLRYNNPALASTSWYRKKSGSTREETISKGGRYVETVNSGSKSFSLRINDLTVEDSGTYRCNVYFFPSFLVDKLQSHDVYGDGTAVTVNA :: condition not met
VNAR clone G3 fused N-terminally to human IgG1 Fc (VNAR-hFc) (Fc fusion, Bivalent VNAR-Fc from Expi293 cells; not shown: human IgG1 Fc (hinge, CH2 and CH3) as encoded by vector pFUSE-hIgG1e3-Fc2) ARVDQTPQTITKETGESLTINCVLRDNNCALSTTYWYRKKSGSTNEENISKGGRYVETVNSGSKSFSLRINDLTVEDSGTYRCKVHFFPSFCNSTSIRSVDVYGGGTVVTVNA :: condition met
VNAR clone H6 fused N-terminally to human IgG1 Fc (VNAR-hFc) (Fc fusion, Bivalent VNAR-Fc from Expi293 cells; not shown: human IgG1 Fc (hinge, CH2 and CH3) as encoded by vector pFUSE-hIgG1e3-Fc2) ARVDQTPQTITKEEGESLTINCVLRTHSNALASTSWYRKKSGSTREETISKGGRYVETVNSGSKSFSLRINDLTVEDSGTYRCNVYAFLEIQPNIYHEFDVYGDGTAVTVNA :: condition not met

Exercise: Just wondering, is Binding [relative units] of VNAR clone F1 fused N-terminally to human IgG1 Fc (VNAR-hFc) (Fc fusion, Bivalent VNAR-Fc from Expi293 cells; also called F1-hFc; not shown: human IgG1 Fc (hinge, CH2 and CH3) as encoded by vector pFUSE-hIgG1e3-Fc2) ARVDQTPQTITKEEGESLTINCVLRVHGRALASTSWYRKKSGSTREETISKGGRYVETVNSGSKSFSLRINDLTVEDSGTYRCNVYGLSSGDIEGVKKIDVYGDGTAVTVNA below 3 relative units?
Solution: condition not met

Exercise: Lab log: compare recorded Binding [relative units] with 3 relative units; is it strictly lower for VNAR clone D1 fused N-terminally to human IgG1 Fc (VNAR-hFc) (Fc fusion, Bivalent VNAR-Fc from Expi293 cells; also called D1-hFc; not shown: human IgG1 Fc (hinge, CH2 and CH3) as encoded by vector pFUSE-hIgG1e3-Fc2) ARVDQTPQTITKEEGESLTINCVLRHNYSALASTSWYRKKSGSTREETISKGGRYVETVNSGSKSFSLRINDLTVEDSGTYRCNVYGISFIEEKIRYDFDVYGDGTAVTVNA ?
Solution: condition not met

Where do these numbers come from? They come from patent US20250263502A1.
